Tested on: Pasteurella multocida PM 6267 (P 2225 (L386))
assay.info: MIC, broth-microdilution (CLSI), strain PM 6267
Type: cell-based
conditions: Pasteurella multocida P 2225 (L386), reference strain (mouse infection strain)
Measured MIC PM 6267 by item

Record excerpt, results attached:
CNC(=O)C(C(=O)NO)N(C)C(=O)c1ccc(C#Cc2ccc(CN3CCOCC3)cc2)cc1 (stereo not shown) [Compound 22]	≤0.1 µM
CNC(=O)C(C(=O)NO)N(C)C(=O)c1ccc(C#Cc2ccc(CN3CCCC3)cc2)cc1 (stereo not shown) [Compound 25]	1.6 µM
CNC(=O)C(NC(=O)c1ccc(C#Cc2ccc(CNCc3ccco3)cc2)cc1)C(=O)NO (stereo not shown) [Compound 14]	≤0.1 µM

Below: the item to evaluate.
Challenge: Consider the compound CCCNCc1ccc(C#Cc2ccc(C(=O)N(C)C(C(=O)NC)C(=O)NO)cc2)cc1 (stereo not shown) [Compound 27] . State its measured MIC PM 6267.
Response given: 0.2 µM

* * *

System: Mannheimia haemolytica MH 6357 (M7/2)
assay.info: MIC, broth-microdilution (CLSI), strain MH 6357
Type: cell-based
conditions: Mannheimia haemolytica M7/2, reference strain (cattle infection strain)
measured.attribute: MIC MH 6357 (µM)
Answer with a number only, understood to be in µM.

Past entries and their recorded results:
CNC(=O)C(NC(=O)c1ccc(C#Cc2ccc(CNCc3ccco3)cc2)cc1)C(=O)NO (stereo not drawn)	0.4
CNC(=O)C(NC(=O)c1ccc(C#Cc2ccc(CNC3CC3)cc2)cc1)C(=O)NO (stereo not drawn)	0.4
CNC(=O)C(C(=O)NO)N(C)C(=O)c1ccc(C#Cc2ccc(CNCc3ccccn3)cc2)cc1 (stereo not drawn)	6.3
CNC(=O)C(NC(=O)c1ccc(C#Cc2ccc(CNCc3nccs3)cc2)cc1)C(=O)NO (stereo not drawn)	0.4

Challenge: Identify the reported MIC MH 6357 for the following entry. CNC(=O)C(NC(=O)c1ccc(C#Cc2ccc(CNCC3CCCO3)cc2)cc1)C(=O)NO (stereo not drawn)
Response given: 3.1

Challenge: Provide MIC MH 6357 value for the following molecule: CNC(=O)C(NC(=O)c1ccc(C#Cc2ccc(CNC3CCCC3)cc2)cc1)C(=O)NO (stereo not drawn)
Response given: 6.3

* * *

Recorded MIC MH 13093 for the following compounds
System: Mannheimia haemolytica MH 13093 (XB0472-6014.1)
assay.info: MIC, broth-microdilution (CLSI), strain MH 13093
Type: cell-based
conditions: Mannheimia haemolytica XB0472-6014.1, BRD field isolate
Express the result in µM but write the number alone.

Check out these entries, answers already filled in.
CNC(=O)C(NC(=O)c1ccc(C#Cc2ccc(CNCc3nccs3)cc2)cc1)C(=O)NO (centres unmarked)	0.4
CNC(=O)C(C(=O)NO)N(C)C(=O)c1ccc(C#Cc2ccc(CNCc3ccccn3)cc2)cc1 (centres unmarked)	6.3
CNC(=O)C(C(=O)NO)N(C)C(=O)c1ccc(C#Cc2ccc(CNCc3ccccc3)cc2)cc1 (centres unmarked)	1.6
CNC(=O)C(NC(=O)c1ccc(C#Cc2ccc(CNCc3cccnc3)cc2)cc1)C(=O)NO (centres unmarked)	1.6
CNC(=O)C(NC(=O)c1ccc(C#Cc2ccc(CNCCOC)cc2)cc1)C(=O)NO (centres unmarked)	1.6
CNC(=O)C(NC(=O)c1ccc(C#Cc2ccc(CNCc3ccccc3)cc2)cc1)C(=O)NO (centres unmarked)	1.6

Challenge: Look up and report measured MIC MH 13093 (Mannheimia haemolytica MH 13093 (XB0472-6014.1)) for the following compound: CNC(=O)C(C(=O)NO)N(C)C(=O)c1ccc(C#Cc2ccc(CNCc3ccc(OC)cc3)cc2)cc1 (centres unmarked)
Response given: 6.3

Challenge: Look up and report MIC MH 13093, with Mannheimia haemolytica MH 13093 (XB0472-6014.1) as system, for CNC(=O)C(C(=O)NO)N(C)C(=O)c1ccc(C#Cc2ccc(CN3CCCC3)cc2)cc1 (centres unmarked)
Response given: 12.5
